measurement_target: human TLR7 (Homo sapiens)
run_description: TLR7 inhibition reporter assay (HEK-Blue cells, SEAP reporter, gardiquimod stimulation)
measurement_conditions: HEK-Blue cells overexpressing human TLR7, SEAP reporter, gardiquimod 7.5 μM
Excerpt: TLR7/8/9 Inhibition Reporter Assays HEK-Blue™-cells (Invivogen) overexpressing human TLR7, TLR8 or TLR9 receptors were used for screening inhibitors of these receptors using an inducible SEAP (secreted embryonic alkaline phosphatase) reporter gene under the control of the IFN-β minimal promoter fused to five NF-κB and AP-1-binding sites. […]
measured_parameter: IC50

Reference set (5 entries):
[
  {
    "line_notation": "CC(C)c1c(-c2cc(C(C)(C)O)c3nccn3c2)[nH]c2ccc(C3CCNCC3)cc12",
    "IC50": "< 100 nM"
  },
  {
    "line_notation": "CCN1CCC(N2CCC(c3ccc4[nH]c(-c5ccnc6[nH]ccc56)c(C)c4c3)CC2)CC1",
    "IC50": "< 100 nM"
  },
  {
    "line_notation": "Cc1cnc2[nH]ccc2c1-c1[nH]c2ccc(C3CCNCC3)cc2c1C(C)C",
    "IC50": "< 100 nM"
  },
  {
    "line_notation": "CCc1c(-c2cnc3ncnn3c2)[nH]c2ccc(C3CCNCC3)cc12",
    "IC50": "100 to 1000 nM"
  },
  {
    "line_notation": "Cc1nc2c(-c3[nH]c4ccc(C5CCNCC5)cc4c3C(C)C)ccc(C)n2n1",
    "IC50": "100 to 1000 nM"
  }
]

Switching to the query record.
Input line: Reported IC50, compound Cc1cc(-c2[nH]c3ccc(C4CCN(C(=O)C[C@@H](C)O)CC4)cc3c2C(C)C)cn2nnnc12 : ____
Output line: < 100 nM

====

Collected pIC50 values appear next to each entry.
measurement_target: human TLR7 (Homo sapiens, UniProt Q9NYK1)
Sequence (Q9NYK1 27-1049): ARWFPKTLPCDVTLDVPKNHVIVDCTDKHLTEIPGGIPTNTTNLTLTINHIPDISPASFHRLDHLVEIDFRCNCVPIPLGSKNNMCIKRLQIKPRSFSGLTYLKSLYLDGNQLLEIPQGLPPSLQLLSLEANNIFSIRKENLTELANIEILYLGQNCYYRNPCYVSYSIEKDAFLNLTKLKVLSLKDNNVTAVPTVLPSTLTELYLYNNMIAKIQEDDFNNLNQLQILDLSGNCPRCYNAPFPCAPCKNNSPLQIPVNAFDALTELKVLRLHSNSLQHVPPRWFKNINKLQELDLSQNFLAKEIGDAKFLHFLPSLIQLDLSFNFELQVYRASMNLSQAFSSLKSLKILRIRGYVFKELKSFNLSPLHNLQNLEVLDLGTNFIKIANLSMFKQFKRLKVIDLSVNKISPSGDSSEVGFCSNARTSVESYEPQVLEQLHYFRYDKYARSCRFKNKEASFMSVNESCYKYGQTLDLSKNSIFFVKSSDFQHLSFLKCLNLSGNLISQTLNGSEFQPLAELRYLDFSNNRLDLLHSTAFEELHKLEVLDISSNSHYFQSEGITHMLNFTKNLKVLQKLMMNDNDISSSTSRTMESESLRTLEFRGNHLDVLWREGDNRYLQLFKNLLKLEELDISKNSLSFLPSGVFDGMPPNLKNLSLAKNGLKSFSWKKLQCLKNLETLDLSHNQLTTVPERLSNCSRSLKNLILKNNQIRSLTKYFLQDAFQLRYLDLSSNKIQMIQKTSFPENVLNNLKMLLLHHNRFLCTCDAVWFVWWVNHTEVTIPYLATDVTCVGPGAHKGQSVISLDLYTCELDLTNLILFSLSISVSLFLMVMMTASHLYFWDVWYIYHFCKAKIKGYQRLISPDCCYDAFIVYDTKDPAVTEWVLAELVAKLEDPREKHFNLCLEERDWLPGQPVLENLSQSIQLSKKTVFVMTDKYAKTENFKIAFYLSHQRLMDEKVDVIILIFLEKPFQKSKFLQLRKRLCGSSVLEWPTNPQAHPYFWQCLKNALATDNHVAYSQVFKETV
run_description: TLR7 inhibition reporter assay (HEK-Blue cells, SEAP reporter, gardiquimod stimulation)
measurement_conditions: HEK-Blue cells overexpressing human TLR7, SEAP reporter, gardiquimod 7.5 μM
pIC50: −log10 of the molar value.

[
  {
    "compound": "Cc1cc2nc(-c3[nH]c4ccc(C5CCNCC5)cc4c3C(C)C)c(F)cn2n1",
    "assay_result": "> 7.00"
  }
]

Input line: Reported pIC50, compound Cc1c(-c2[nH]c3ccc(C4CCNCC4)cc3c2C(C)C)cn2nnnc2c1C : ____
Output line: > 7.00

Input line: Reported pIC50, compound Cc1cc(-c2[nH]c3ccc(C4CCNCC4)cc3c2C(C)C)cn2cc(C(=O)N(C)CCO)nc12 : ____
Output line: > 7.00

Input line: Reported pIC50, compound CC(C)c1c(-c2ccnc3[nH]c(=O)[nH]c23)[nH]c2ccc(C3CCNCC3)cc12 : ____
Output line: 6.00 to 7.00

Input line: Reported pIC50, compound Cc1cn2cc(-c3[nH]c4ccc(C5CCNCC5)cc4c3C(C)C)ccc2n1 : ____
Output line: > 7.00

Input line: Reported pIC50, compound CC(C)c1c(-c2cn3cnnc3c(=O)n2C)[nH]c2ccc(C3CCNCC3)cc12 : ____
Output line: < 5.51

Input line: Reported pIC50, compound Cc1cc2nnnn2cc1-c1[nH]c2ccc(C3CCN(C(=O)CN(C)C)CC3)cc2c1C(C)C : ____
Output line: > 7.00

Input line: Reported pIC50, compound CC(C)c1c(-c2ccnc3[nH]ncc23)[nH]c2ccc(C3CCN(CC4CCN(C(C)C)CC4)CC3)c(F)c12 : ____
Output line: 6.00 to 7.00
